Would you mind telling me the reported Population Membrane Permeable-Phenotype (%) of each entry?
test system: Fibroblast; assay: Multiplex assay against human fibroblast; assay type: toxicity, cell-based; settings: 24 h, 10 µM, compound concentration 10 uM, replicate 2
Answer with a number only, understood to be in %.

For Cl.O=C(O)c1cc(-c2ccc(C3CCNCC3)cc2)c2ccc(-c3ccc(C(F)(F)F)cc3)cc2c1 the compound record lists Population Membrane Permeable-Phenotype (%) as 7

For O=C(c1cc2c(cc1F)OC(c1ccc(F)cc1)(c1ccc(Cl)cc1Cl)O2)N1CCOCC1 (stereo not drawn) the compound record lists Population Membrane Permeable-Phenotype (%) as 64

For COC(=O)C1=C(C)NC(C)=C(C(=O)OCCCN2CCC(c3ccccc3)(c3ccccc3)CC2)[C@H]1c1cccc([N+](=O)[O-])c1 the compound record lists Population Membrane Permeable-Phenotype (%) as 100

For CN1CCN(Cc2ccc(Nc3ncc(Cl)c(Nc4ccccc4S(=O)(=O)N(C)C)n3)cc2)CC1 the compound record lists Population Membrane Permeable-Phenotype (%) as 55

For Cc1c[nH]c2nccc(Oc3c(F)cc(Nc4cc(Cl)nc(N)n4)cc3F)c12 the compound record lists Population Membrane Permeable-Phenotype (%) as 11

For CNC(=O)Nc1ccc(-c2nc(N3CC4CCC(C3)O4)c3cnn(C4CCC5(CC4)OCCO5)c3n2)cc1 the compound record lists Population Membrane Permeable-Phenotype (%) as 44

For CC(C)c1noc(N2CCC(COc3ccc(-c4ccc(S(C)(=O)=O)cc4)nc3)CC2)n1 the compound record lists Population Membrane Permeable-Phenotype (%) as 7

For O=c1[nH]c2ccccc2n1C1CCN(Cc2ccc(-c3[nH]c4cc5ncnc5cc4nc3-c3ccccc3)cc2)CC1 the compound record lists Population Membrane Permeable-Phenotype (%) as 24

###

test system: HEK-293T; test: Multiplex assay against HEK293T; format: toxicity, cell-based; conditions: human, 24 h, 10 µM, compound concentration 10 uM, replicate 2
assay endpoint: Population Normal (%)
Answer with a number only, understood to be in %.

For COc1ccccc1CN[C@H]1C2CCN(CC2)[C@H]1C(c1ccccc1)c1ccccc1 the molecule record lists Population Normal (%) as 97

For CC(C)OC(=O)N1CCC(Oc2ncnc3c2cnn3-c2ccc(S(C)(=O)=O)cc2F)CC1 the molecule record lists Population Normal (%) as 96

For Cl.O=C(O)c1cc(-c2ccc(C3CCNCC3)cc2)c2ccc(-c3ccc(C(F)(F)F)cc3)cc2c1 the molecule record lists Population Normal (%) as 71

For CC(C)(C)NC[C@H](O)COc1nsnc1N1CCOCC1 the molecule record lists Population Normal (%) as 96

For CC(C)CC(=O)Nc1[nH]nc2c1CN(C(=O)C1CCN(C)CC1)C2(C)C the molecule record lists Population Normal (%) as 95

For CC(C)Oc1ccccc1C(=O)Nc1ccccc1C(=O)Nc1cccc(S(=O)(=O)C(F)(F)F)c1 the molecule record lists Population Normal (%) as 96

For CC1=C(C(=O)Nc2cc3cn[nH]c3cc2F)C(c2ccc(C(F)(F)F)cc2)CC(=O)N1 (centres undefined) the molecule record lists Population Normal (%) as 97

For CC(C)NC(=O)N1CC[C@H](NC2=Nc3cc(F)ccc3N(CC(F)F)c3ccc(Cl)cc32)C1 the molecule record lists Population Normal (%) as 97

For C[C@]12CC[C@@H]3c4ccc(O)cc4CC[C@H]3[C@@H]1CC[C@@H]2O the molecule record lists Population Normal (%) as 94
